Procedure summary: protease stability score; higher = more stable; yeast display proteolysis, trypsin and chymotrypsin;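 also: log10 excess protease needed over predicted unfolded state with 0 meaning unfolded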
Lab note: anything with protease stability score at or over -0.3 counts as Y; the rest go in N.

Field: example entries. Status: answers known.
| Sequence entry | Discrete label |
| --- | --- |
| DEEVEEQVKELKRILETGDEDRMQENADPNVRAVYGNKEIHGRDQLREEIRSLKDEMRYEVEIKDYRIRPNEADVRATWHMRVNGQPMRQEVKVKIKFHNGKLKVFVLDFDEEHEKRSRK | Y |
| DEDVKRMIEDFIEAEKKNNPRQLKKNADPEAEADVGDTKVHGMDHFAREVKKRMDQMRVSVDYKSITVDGNTIKAKARVSENHNGRPKHNTATLEFRAHNGRIKEIRHHEDK | N |
| DEEHIEEVQRRFISAFKDGDEDQMQRQMDPNVKLVIGDTTIHGRESAAKSLANIVRKVDHVDVESYEVRGNQASMIMRVEINGKDDRLDFQIEIHNGHIKRLEIQSS | Y |
| DEKQAKELADEYIKAFEEGDPDKHQELVDKDAQVNYGDKTLHGREEFRKLVEELRRQADHISVHNVDYQGNKVVVHYVVDVNGHKVELSYTVQYHDGRMKQASVSYRSEDLKREQEQ | Y |
| DEREAENARNYQENQKTNNPQKLQELVDPNVHWQVGDKSYKGRETQKKEMDNKRNHIREHIEHVEVRSHGDKVEAKYTAYADINGDPVRMRFDQVMVVHNGRLTEVNVDMSEDQKRKQES | N |

**Q:** Does DEDARKLAEELLKAQETGDPKTLKRLVDPNVKVDVGDKTFHGMDEINEEVTRTKRRQRVKIDRVSIHVRGDSVVIHVTEKNEKDGQPSSRQYVQEMRVTNGHVVEMKQNKSR have a reported protease stability score of at least -0.3?
**A:** N

**Q:** Reported protease stability score reaches at least -0.3 for DDDQQRQAEKIVRAIRHGNEQEVDELVDENVRIEYGDKVVHGRSQLRKKMQDEKRHIRQDIKVDTVKEDGDKALIHFKNNFTVNGTPTTNTYSYEVEFTNGRAKELRIRVDPQEVRKQEK ?
**A:** Y

**Q:** Hi team, for DEKRVEELARKLFKYIINGDQEKVKTLLKPNVEYNYIDTQYKGPDAAVTMAQEVKKVGAEVKVREEKVEGNTAEVVFQYRVGDNTMQTKAQVHYEGDKVKEVRVELSEEVKKVVHQG , is the recorded protease stability score at or above -0.3?
**A:** Y

**Q:** # bool: protease stability score of DEERMHQLEKLFRTNNFEEFAKQADKDVTAKVGNETYTGREDMEKFARRLREQVDSIHYDRVEVKGDKFKADAQFDFNGKRVRFTVEVEFHNGKLQHMRMQATTHELEETLAKLLS >= -0.3
**A:** Y
